B1: 2K2A (parent)
chain: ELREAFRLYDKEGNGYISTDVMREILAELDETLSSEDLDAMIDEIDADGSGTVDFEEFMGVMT

variants of: B1; assay: folding stability dG (cDNA display proteolysis); higher = more stable; settings: PBS, room temperature
Catalogue of folding stability dG values
measured-property: folding stability dG (kcal/mol)

[[record]]
sequence_data = "ELREAFRLYDKEGNGYISTDKMREILAELDETLSSEDLDAMIDEIDADGSGTVDFEEFMGVMT [V21K]"
measured_property = "folding stability dG"
measurement_units = "kcal/mol"
value_measured = 2.04

[[record]]
sequence_data = "ELREAFRLYDKEGNGYISYDVMREILAELDETLSSEDLDAMIDEIDADGSGTVDFEEFMGVMT [T19Y]"
measured_property = "folding stability dG"
measurement_units = "kcal/mol"
value_measured = 2.03

[[record]]
sequence_data = "ELREAFRLYDKEGNGYISTDVMREILAELDETLSREDLDAMIDEIDADGSGTVDFEEFMGVMT [S35R]"
measured_property = "folding stability dG"
measurement_units = "kcal/mol"
value_measured = 1.96

[[record]]
sequence_data = "ELREAFRLYDKEGNGYISTNVMREILAELDETLSSEDLDAMIDEIDADGSGTVDFEEFMGVMT [D20N]"
measured_property = "folding stability dG"
measurement_units = "kcal/mol"
value_measured = 2.04

[[record]]
sequence_data = "ELREAFRLYDKEGNGYISTDIMREILAELDETLSSEDLDAMIDEIDADGSGTVDFEEFMGVMT [V21I]"
measured_property = "folding stability dG"
measurement_units = "kcal/mol"
value_measured = 2.02

[[record]]
sequence_data = "ELREAFRLYDKEGNGYISTHVMREILAELDETLSSEDLDAMIDEIDADGSGTVDFEEFMGVMT [D20H]"
measured_property = "folding stability dG"
measurement_units = "kcal/mol"
value_measured = 2.05

[[record]]
sequence_data = "ELREAFRLYDKEGNGYISTDVMREILAELDETLSSEDLDAMIDEIDHDGSGTVDFEEFMGVMT [A47H]"
measured_property = "folding stability dG"
measurement_units = "kcal/mol"
value_measured = 1.96

[[record]]
sequence_data = "ELREAFRLWDKEGNGYISTDVMREILAELDETLSSEDLDAMIDEIDADGSGTVDFEEFMGVMT [Y9W]"
measured_property = "folding stability dG"
measurement_units = "kcal/mol"
value_measured = 2


The reported numbers originate from the MegaScale stability set (Tsuboyama et al. 2023).
